Origin of measurements: ChEMBL document CHEMBL4130539

- experiment_notes: Intrinsic clearance in rat liver microsomes at 10 uM preincubated for 10 mins followed by NADPH addition by liquid chromatographic method
- Assay type: ADME, microsome
value_type: Microsomal intrinsic clearance (CLint) (µL/min/mg)

[[record]]
molecule = "N#Cc1ccc(C[C@@H](NC(=O)Nc2ccc([N+](=O)[O-])cc2)C(=O)NCC2(c3ccccc3)CC2)cc1"
value_type = "Microsomal intrinsic clearance (CLint)"
observed = 7.29


[a] N#Cc1ccc(C[C@H](NC(=O)Nc2ccc([N+](=O)[O-])cc2)C(=O)NCC2(c3ccccc3)CC2)cc1
[b] N#Cc1ccc(C[C@H](NC(=O)Nc2ccc(F)cc2)C(=O)NCC2(c3ccc(F)c(Cl)c3)CC2)cc1
Which value of Microsomal intrinsic clearance (CLint) is numerically greater: that of a or that of b ? Give the label under which the chosen entry appears. b
(b: 14.4 µL/min/mg, a: 5.78 µL/min/mg)

[P] O=C(Nc1ccc([N+](=O)[O-])cc1)N[C@@H](Cc1cccnc1)C(=O)NCC1(c2ccccc2)CC1
[Q] N#Cc1ccc(C[C@@H](NC(=O)Nc2ccc(F)cc2)C(=O)NCC2(c3ccc(F)c(Cl)c3)CC2)cc1
Given the two records P and Q , choose the one whose Microsomal intrinsic clearance (CLint) value is lower. Give the label under which the chosen entry appears. P
(P: 6.3 µL/min/mg, Q: 14.7 µL/min/mg)

[a] O=C(Nc1ccc([N+](=O)[O-])cc1)N[C@H](Cc1cccnc1)C(=O)NCC1(c2ccccc2)CC1
[b] Cc1ccc(C2(CNC(=O)[C@@H](Cc3ccc(C#N)cc3)NC(=O)Nc3ccc(F)cc3)CC2)cc1F
Which value of Microsomal intrinsic clearance (CLint) is numerically greater: that of a or that of b ? Give the label under which the chosen entry appears. b
